Listed binders paired with reported Mean % WT Binding
Target: human CD33 variant M120I (human, UniProt P20138 18-364)
Sequence (P20138 18-364 M120I limits assumed): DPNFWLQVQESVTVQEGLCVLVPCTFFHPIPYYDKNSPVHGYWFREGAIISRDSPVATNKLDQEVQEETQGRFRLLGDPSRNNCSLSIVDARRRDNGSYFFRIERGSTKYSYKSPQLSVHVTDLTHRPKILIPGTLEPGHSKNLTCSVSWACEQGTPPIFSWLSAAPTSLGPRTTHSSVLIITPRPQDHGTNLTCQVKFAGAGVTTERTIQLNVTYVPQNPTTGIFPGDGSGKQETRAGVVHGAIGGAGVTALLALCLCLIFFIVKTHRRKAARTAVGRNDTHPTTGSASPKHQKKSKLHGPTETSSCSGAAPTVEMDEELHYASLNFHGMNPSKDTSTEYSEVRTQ
Test: flow cytometry, IgG on cells expressing the mutant

Here is how some binders turned out for Mean % WT Binding.
Refmab #1 (antibody, human IgG1, V domains shown, Tested in IgG format; human IgG1 (Absolute Antibody hP67.6, Cat. No. Ab00283-10.0); also called hP67.6) VH: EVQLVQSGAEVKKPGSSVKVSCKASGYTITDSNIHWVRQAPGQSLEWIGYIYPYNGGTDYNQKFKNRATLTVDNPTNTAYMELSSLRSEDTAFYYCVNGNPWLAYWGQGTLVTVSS VL: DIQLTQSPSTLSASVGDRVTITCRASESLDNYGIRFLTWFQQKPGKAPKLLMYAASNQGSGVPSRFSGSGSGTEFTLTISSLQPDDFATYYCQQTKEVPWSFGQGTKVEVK yielded Mean % WT Binding of 96.6 % of WT

Refmab #3 (antibody, human IgG1, V domains shown, Tested in IgG format; human IgG1 Fc silent (PG-LALA)) VH: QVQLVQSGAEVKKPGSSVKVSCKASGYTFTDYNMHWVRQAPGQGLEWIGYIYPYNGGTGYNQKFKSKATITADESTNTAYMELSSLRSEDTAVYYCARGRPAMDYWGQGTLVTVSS VL: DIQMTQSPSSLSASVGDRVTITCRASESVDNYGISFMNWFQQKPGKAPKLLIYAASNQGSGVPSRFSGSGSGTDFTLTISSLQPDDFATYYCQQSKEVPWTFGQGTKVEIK yielded Mean % WT Binding of 81.6 % of WT

Refmab #2 (antibody, human IgG1, V domains shown, Tested in IgG format; human IgG1 Fc silent (PG-LALA)) VH: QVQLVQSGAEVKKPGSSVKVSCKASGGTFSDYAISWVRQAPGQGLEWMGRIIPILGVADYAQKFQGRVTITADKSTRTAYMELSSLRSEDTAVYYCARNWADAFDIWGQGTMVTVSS VL: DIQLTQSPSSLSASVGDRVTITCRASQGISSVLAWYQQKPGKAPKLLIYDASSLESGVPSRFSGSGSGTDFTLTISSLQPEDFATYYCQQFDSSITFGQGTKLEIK yielded Mean % WT Binding of 95.7 % of WT

---
Refmab #4 (antibody, human IgG1, V domains shown, Tested in IgG format; human IgG1 Fc silent (PG-LALA)) VH: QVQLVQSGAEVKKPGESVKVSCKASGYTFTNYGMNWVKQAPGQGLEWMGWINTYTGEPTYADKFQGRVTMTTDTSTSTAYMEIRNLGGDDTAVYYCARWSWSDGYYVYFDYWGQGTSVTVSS VL: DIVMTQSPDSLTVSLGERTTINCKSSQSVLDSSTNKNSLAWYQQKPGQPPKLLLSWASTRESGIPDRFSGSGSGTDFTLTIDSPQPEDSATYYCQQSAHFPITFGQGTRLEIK yielded Mean % WT Binding of 101 % of WT
